The reported measurements were obtained from patent US10681909B2.

Tested on: barnyardgrass
METHOD NOTES: Test A postemergence
Type: in vivo, Echinochloa crus-galli
ASSAY CONDITIONS: 500 g ai/ha, 0 to 100 scale (0 no effect, 100 complete control), approx. 10 d
Measured Plant response rating, Barnyardgrass of individual entries
Give the figure by itself; no unit, no explanation.

Below, 2 compounds whose answers are already recorded.
>>> df
                                   compound  numeric_result
0  CCn1nc(-c2ccc(F)cc2)nc1Cc1ccnc(C(F)(F)F)c1 [Compound 18]              60
1  CCCn1nc(-c2ccc(F)cc2)nc1C(=O)c1ccnc(C(F)(F)F)c1 [Compound 20]              20

Note: attention shifts to another entry.
Using the record for FC(F)(F)COc1nc(-c2ccccc2)nn1Cc1ccnc(C(F)(F)F)c1 [Compound 24] , report its Plant response rating, Barnyardgrass.
70
